# tested_on: Estrogen receptor beta (Homo sapiens)
# assay_remarks: Relative binding affinity towards estrogen receptor 2 determined by a competitive radiometric binding assay using 10 nM [3H]estradiol as the radioligand
Each item that follows carries a reported relative binding affinity (RBA).
The reply should be a number, written without any unit.

>  <sample_smiles>
CCc1c(-c2ccc(O)cc2)oc(-c2ccccc2)c1-c1ccccc1

>  <val>
3.4

$$$$
>  <sample_smiles>
CCc1c(-c2ccccc2)oc(-c2ccc(O)cc2)c1-c1ccccc1

>  <val>
2

$$$$

Task: Fill in: relative binding affinity (RBA) of Oc1ccc(-c2oc(-c3ccc(O)cc3)c(-c3ccc(O)cc3)c2-c2ccc(O)cc2)cc1 is ___
Result: 0.25

Task: Fill in: relative binding affinity (RBA) of CCc1c(-c2ccc(O)cc2)oc(-c2ccc(O)cc2)c1-c1ccccc1 is ___
Result: 3

Task: Fill in: relative binding affinity (RBA) of CCc1c(-c2ccccc2)oc(-c2ccc(O)cc2)c1-c1ccc(O)cc1 is ___
Result: 4.5

----------
# Test system: Estrogen receptor (Ovis aries)
# assay_remarks: Relative binding affinity (RBA) for ER alpha using lamb uterine cytosol determined by a competitive radiometric binding assay using 10 nM [3H]estradiol as the radioligand
# condition_info: Uterus
value_type: relative binding affinity (RBA)
The reply should be a number, written without any unit.

Task: Value wanted: relative binding affinity (RBA) (Estrogen receptor (Ovis aries)) of entry CCCc1c(-c2ccc(O)cc2)oc(-c2ccccc2)c1-c1ccc(O)cc1
Result: 3.6

Task: Value wanted: relative binding affinity (RBA) (Estrogen receptor (Ovis aries)) of entry Oc1ccc(-c2cc(-c3ccc(O)cc3)c(-c3ccccc3)s2)cc1
Result: 0.04

----------
# tested_on: Estrogen receptor (Homo sapiens) (UniProt P03372)
# Sequence (whole entry): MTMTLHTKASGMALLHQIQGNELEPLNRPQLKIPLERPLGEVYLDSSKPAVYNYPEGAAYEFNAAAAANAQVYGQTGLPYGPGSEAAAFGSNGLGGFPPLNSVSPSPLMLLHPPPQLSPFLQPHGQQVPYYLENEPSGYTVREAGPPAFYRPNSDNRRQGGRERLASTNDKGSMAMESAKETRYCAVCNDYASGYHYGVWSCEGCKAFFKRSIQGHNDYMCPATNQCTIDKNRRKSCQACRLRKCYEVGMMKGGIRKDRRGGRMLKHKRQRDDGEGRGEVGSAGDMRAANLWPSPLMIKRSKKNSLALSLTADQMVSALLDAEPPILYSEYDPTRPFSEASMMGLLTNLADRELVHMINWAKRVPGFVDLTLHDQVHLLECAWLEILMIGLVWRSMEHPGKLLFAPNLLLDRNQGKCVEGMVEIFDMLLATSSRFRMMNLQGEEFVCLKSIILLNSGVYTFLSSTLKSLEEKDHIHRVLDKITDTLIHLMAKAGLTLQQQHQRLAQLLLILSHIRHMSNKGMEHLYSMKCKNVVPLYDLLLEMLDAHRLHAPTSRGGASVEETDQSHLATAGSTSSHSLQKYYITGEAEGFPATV
# assay_remarks: Relative binding affinity (RBA) for ER alpha (Estrogen receptor alpha) determined by a competitive radiometric binding assay using 10 nM [3H]estradiol as the radioligand
Parameter threshold = 20. Response is true when relative binding affinity (RBA) meets or exceeds it, else false.

>  <sample_smiles>
CCCc1c(-c2ccc(O)cc2)oc(-c2ccc(O)cc2)c1-c1ccc(O)cc1

>  <tested_on>
Estrogen receptor (Homo sapiens) (UniProt P03372)

>  <assigned_class>
true

$$$$

Task: Is relative binding affinity (RBA) at least 20? Consider CCCCc1c(-c2ccc(O)cc2)oc(-c2ccc(O)cc2)c1-c1ccc(O)cc1
Result: true

Task: Is relative binding affinity (RBA) at least 20? Consider CCc1c(-c2ccc(O)cc2)oc(-c2ccccc2)c1-c1ccc(O)cc1
Result: true

Task: Is relative binding affinity (RBA) at least 20? Consider CCc1c(-c2ccc(O)cc2)oc(-c2ccc(O)cc2)c1-c1ccccc1
Result: false

Task: Is relative binding affinity (RBA) at least 20? Consider CCc1c(-c2ccc(O)cc2)oc(-c2ccc(O)cc2)c1-c1ccc(O)cc1
Result: true

Task: Is relative binding affinity (RBA) at least 20? Consider CCCc1c(-c2ccc(O)cc2)oc(-c2ccccc2)c1-c1ccc(O)cc1
Result: true

Task: Is relative binding affinity (RBA) at least 20? Consider CCc1c(-c2ccccc2)oc(-c2ccc(O)cc2)c1-c1ccccc1
Result: false

Task: Is relative binding affinity (RBA) at least 20? Consider Cc1c(-c2ccc(O)cc2)oc(-c2ccc(O)cc2)c1-c1ccc(O)cc1
Result: true

Task: Is relative binding affinity (RBA) at least 20? Consider CCc1c(-c2ccccc2)oc(-c2ccccc2)c1-c1ccc(O)cc1
Result: false

Task: Is relative binding affinity (RBA) at least 20? Consider Oc1ccc(-c2oc(-c3ccc(O)cc3)c(-c3ccc(O)cc3)c2-c2ccc(O)cc2)cc1
Result: false

Task: Is relative binding affinity (RBA) at least 20? Consider CCc1c(-c2ccccc2)oc(-c2ccc(O)cc2)c1-c1ccc(O)cc1
Result: false

Task: Is relative binding affinity (RBA) at least 20? Consider CCc1c(-c2ccc(O)cc2)oc(-c2ccccc2)c1-c1ccccc1
Result: false
